Hello, the source for this data is PubChem BioAssay (Tox21), in case you need it.

Test system: estrogen-related receptor alpha (ERRalpha) with PGC-1alpha coactivator, human
Test: qHTS assay to identify small molecule antagonists of the estrogen related receptor signaling pathway with the pleiotropic PPARgamma coactivator (PGC) (AID 1224821); also: nearly all actives have a fitted effect of over 50% in size
Details: ERR/PGC reporter cell line, luciferase, antagonist mode; series mostly up to 46.1 µM
Records with an inconclusive call do not appear. Activity calls are given as the source filed them. Calls follow the shape of the full dose curve.
Permitted responses: t = active, f = inactive

N#CC(=C(\N)Sc1ccccc1N)/C(C#N)=C(/N)Sc1ccccc1N | t
COc1cc2c(CCNC(C)=O)c[nH]c2cc1Cl | f
CCCCS(=N)(=O)CC[C@H](N)C(=O)O (stereo partly specified) | f
NC[C@H]1O[C@@H](n2cnc3c(N)ncnc32)[C@H](O)[C@@H]1O | f
CCN1C(=O)C=CC1=O | f

As a next step, examine the molecule that follows.
GET /call?item= O=c1[nH]c(=O)c2nc3ccccc3nc2[nH]1 returns the recorded outcome of this test.
f

---

Assay: qHTS assay to identify small molecule that activate the aryl hydrocarbon receptor (AhR) signaling pathway - cell viability counter screen (AID 743086); also: nearly all actives have a fitted effect of over 45% in size
Details: HepG2-AhR-luc viability, CellTiter-Fluor, 24 h; series mostly up to 70.3 µM
Records with an inconclusive call do not appear. Activity calls are given as the source filed them. Calls follow the shape of the dose curve; as a rule, active = well fitted cell-killing curve with a large enough effect in the repeat runs; inconclusive = weak or mixed curves, or effect the other way; inactive = flat fitted curve, though single readings scatter.
Response enum: yes (1) = active, no (0) = inactive

Outcome? N=C(N)c1ccc(/C=C/c2ccc(C(=N)N)cc2O)cc1
no (0)

Which outcome was entered for the compound CC(C)OC(=O)Nc1ccc2nc(-c3cscn3)[nH]c2c1 in this test?
no (0)

Could you kindly confirm the outcome this assay logged for S=C1NC=NC2N=CNC12 (stereo not given) ?
no (0)

Recorded test outcome, item CN1C(C(=O)Nc2ccccn2)C(=O)c2sc(Cl)cc2S1(=O)=O (stereo not given)
no (0)

Name the outcome recorded for C=C(Nc1ccc(OCC)cc1)Nc1ccc(OCC)cc1 in the assay.
no (0)

Can you look up the reported call for CN1C(=O)C[C@@H](C(=O)N[C@@H](Cc2cnc[nH]2)C(=O)N2CCC[C@H]2C(N)=O)NC1=O for me?
no (0)

Name the outcome recorded for CN1CCN(CCCN2c3ccccc3Sc3ccc(Cl)cc32)CC1 in the assay.
yes (1)

Each compound tested received a call. Report the one for CCCCCCCCCCCCCC(=O)OCC(COP(=O)([O-])OCC[N+](C)(C)C)OC(=O)CCCCCCCCCCCCC (stereo not given) .
no (0)

Query: recorded result category for CC1=C(/C=C/C(C)=C/C=C/C(C)=C/C=C/C=C(C)/C=C/C=C(C)/C=C/C2=C(C)CCCC2(C)C)C(C)(C)CCC1 in this test
no (0)

How did this test come out for N#Cc1c(N(CC(=O)O)CC(=O)O)sc(C(=O)O)c1CC(=O)O ?
no (0)

Record request — test call for N[C@H](C(=O)O)[C@@H]1CC(Cl)=NO1
no (0)

---

Biological target: Nuclear receptor subfamily 1 group I member 2 (Homo sapiens) (UniProt O75469)
Sequence (O75469 whole entry, looked up): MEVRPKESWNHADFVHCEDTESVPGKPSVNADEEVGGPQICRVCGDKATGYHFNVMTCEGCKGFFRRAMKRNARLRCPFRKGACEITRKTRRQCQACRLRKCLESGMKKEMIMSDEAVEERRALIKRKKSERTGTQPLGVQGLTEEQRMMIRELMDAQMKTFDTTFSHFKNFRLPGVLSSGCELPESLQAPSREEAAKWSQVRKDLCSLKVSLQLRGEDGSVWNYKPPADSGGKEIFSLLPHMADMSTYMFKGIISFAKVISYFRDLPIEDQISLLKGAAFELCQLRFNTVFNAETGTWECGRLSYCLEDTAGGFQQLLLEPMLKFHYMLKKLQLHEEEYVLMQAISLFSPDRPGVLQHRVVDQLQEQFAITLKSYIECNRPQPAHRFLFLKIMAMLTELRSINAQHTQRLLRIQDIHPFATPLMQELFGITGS
Test: Human pregnane X receptor (PXR) small molecule agonists, qHTS assay (AID 1346982); also: nearly all actives have a fitted effect of over 35% in size; also: potency is read from the fitted curve at half-maximal effect
Conditions: PXR-Luc HepG2, CYP3A4 luciferase reporter, 24 h; series mostly up to 92.4 µM
Records with an inconclusive call do not appear. The source made the active and inactive calls. The call rests on the fitted dose curve; in most records, active means well fitted activation curve with a large enough effect in the repeat runs; inconclusive means weak or mixed curves; inactive means no such curve, though single readings can be large or run the other way.
MEASURE: Potency

O=c1cc[nH]cc1 | inactive
[Cl][Sc]([Cl])[Cl] | inactive
CCn1c2ccccc2c2ccccc21 | inactive
CC1(C)[C@H]2CC[C@]1(C)C(=O)C2 | inactive
CCCCCCCCCCCCN1CCCC1=O | 27.3 µM (active)
O=C(NCc1ncc(C(F)(F)F)cc1Cl)c1c(Cl)cccc1Cl | 1.22 µM (active)

In plain terms, COc1ccc(OC)c(N=Nc2c(O)ccc3ccccc23)c1 has a documented Potency of 9.69 µM (active)

Potency reported for this compound CCCCCCCCCCCCCCCCCCNC(=O)OC1CCN(C(=O)OC[C@H](COC(=O)N(Cc2cccc[n+]2CC)C(=O)c2ccccc2OC)OC)CC1 : inactive
